Test system: RAW-Dual (murine macrophage reporter line)
ASSAY TEXT: NF-kB reporter (SEAP) activity fold change vs agonist alone; higher = enhanced NF-kB activity
ASSAY SETUP: modulator concentration 10 µM; agonist: MPLA […]
Collected NF-kB reporter values appear next to each entry.
Please give the numeric answer without any surrounding text.

compound="Cc1ccc(C(=O)N2N=C(c3ccc(Cl)cc3)CC2(O)C(F)(F)F)o1 (stereo not given)" parameter="NF-kB reporter" quantitative_result=0.974
compound=Cc1cc(C)nc(SCCCCSc2nc(C)cc(C)n2)n1 parameter="NF-kB reporter" quantitative_result=0.944
compound=CC(C)C(=O)c1c(C(C)C)nn2ccccc12 parameter="NF-kB reporter" quantitative_result=1.21
compound="CCc1ccc(CCOc2ccc(CC3SC(=O)NC3=O)cc2)nc1.Cl (stereo not given)" parameter="NF-kB reporter" quantitative_result=0.983

Report measured NF-kB reporter; entry is "C=CCN1C(=O)C(=C2C(=O)N(Cc3ccccc3F)c3ccccc32)SC1=S"
1.01
